Reference for the values: ChEMBL document CHEMBL1961873

- study target: Tyrosine-protein kinase TXK (Homo sapiens)
- condition set: at 1 µM
Note to self: values exactly at 4% are T. So inhibition at or above 4% is T, below is F.

Field: example entries. Status: answers known.
compound smiles: OCCCNc1nccc(-c2c(-c3ccc(F)cc3)nn3cc(C(F)(F)F)ccc23)n1
study target: Tyrosine-protein kinase TXK (Homo sapiens)
group label: T
--
compound smiles: c1ccc(-c2n[nH]cc2-c2ccnc(-c3ccc(OCCn4ccnc4)cc3)c2)nc1
study target: Tyrosine-protein kinase TXK (Homo sapiens)
group label: T
--
compound smiles: NS(=O)(=O)c1ccc(N/N=C2\C(=O)Nc3cccc(CCc4ccncc4)c32)cc1
study target: Tyrosine-protein kinase TXK (Homo sapiens)
group label: T
--
compound smiles: Fc1ccc(Nc2nccc(-c3c(-c4ccc(C(F)(F)F)cc4)nn4ncccc34)n2)cc1F
study target: Tyrosine-protein kinase TXK (Homo sapiens);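 further: value given is the mean percent inhibition of TXK kinase activity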
group label: T

Query: Please indicate if the recorded inhibition for CCn1c(-c2nonc2N)nc2cncc(C(=O)NCCNC)c21 meets or exceeds 4%.
Result: F

Query: Next up: CCCNc1cccc(-n2ncc3c(N/N=C/c4ccncc4)ncnc32)c1
Result: T

Query: Now this one: COc1ccc2ncn(-c3cc(O[C@H](C)c4ccccc4C(F)(F)F)c(C(N)=O)s3)c2c1
Result: F

Query: Follow-up item: CNC(=O)c1ncccc1Nc1nc(Nc2cc3c(cc2OC)CCCN3C(=O)CN(C)C)nc2[nH]ccc12
Result: F

Query: Also, CCOc1ccc2c(-c3ccnc(Nc4cc(OC)cc(C(F)(F)F)c4)n3)cnn2n1 please.
Result: F

Query: # repeat for Cc1cc(O)cc(C)c1/C=C/c1cncc(C(=O)OC(C)(C)C)c1
Result: T

* * *

Task for the reader: assign each of the following compounds its reported inhibition.
- study target: Hepatocyte growth factor receptor (Homo sapiens) (UniProt P08581)
- Sequence (P08581 whole entry): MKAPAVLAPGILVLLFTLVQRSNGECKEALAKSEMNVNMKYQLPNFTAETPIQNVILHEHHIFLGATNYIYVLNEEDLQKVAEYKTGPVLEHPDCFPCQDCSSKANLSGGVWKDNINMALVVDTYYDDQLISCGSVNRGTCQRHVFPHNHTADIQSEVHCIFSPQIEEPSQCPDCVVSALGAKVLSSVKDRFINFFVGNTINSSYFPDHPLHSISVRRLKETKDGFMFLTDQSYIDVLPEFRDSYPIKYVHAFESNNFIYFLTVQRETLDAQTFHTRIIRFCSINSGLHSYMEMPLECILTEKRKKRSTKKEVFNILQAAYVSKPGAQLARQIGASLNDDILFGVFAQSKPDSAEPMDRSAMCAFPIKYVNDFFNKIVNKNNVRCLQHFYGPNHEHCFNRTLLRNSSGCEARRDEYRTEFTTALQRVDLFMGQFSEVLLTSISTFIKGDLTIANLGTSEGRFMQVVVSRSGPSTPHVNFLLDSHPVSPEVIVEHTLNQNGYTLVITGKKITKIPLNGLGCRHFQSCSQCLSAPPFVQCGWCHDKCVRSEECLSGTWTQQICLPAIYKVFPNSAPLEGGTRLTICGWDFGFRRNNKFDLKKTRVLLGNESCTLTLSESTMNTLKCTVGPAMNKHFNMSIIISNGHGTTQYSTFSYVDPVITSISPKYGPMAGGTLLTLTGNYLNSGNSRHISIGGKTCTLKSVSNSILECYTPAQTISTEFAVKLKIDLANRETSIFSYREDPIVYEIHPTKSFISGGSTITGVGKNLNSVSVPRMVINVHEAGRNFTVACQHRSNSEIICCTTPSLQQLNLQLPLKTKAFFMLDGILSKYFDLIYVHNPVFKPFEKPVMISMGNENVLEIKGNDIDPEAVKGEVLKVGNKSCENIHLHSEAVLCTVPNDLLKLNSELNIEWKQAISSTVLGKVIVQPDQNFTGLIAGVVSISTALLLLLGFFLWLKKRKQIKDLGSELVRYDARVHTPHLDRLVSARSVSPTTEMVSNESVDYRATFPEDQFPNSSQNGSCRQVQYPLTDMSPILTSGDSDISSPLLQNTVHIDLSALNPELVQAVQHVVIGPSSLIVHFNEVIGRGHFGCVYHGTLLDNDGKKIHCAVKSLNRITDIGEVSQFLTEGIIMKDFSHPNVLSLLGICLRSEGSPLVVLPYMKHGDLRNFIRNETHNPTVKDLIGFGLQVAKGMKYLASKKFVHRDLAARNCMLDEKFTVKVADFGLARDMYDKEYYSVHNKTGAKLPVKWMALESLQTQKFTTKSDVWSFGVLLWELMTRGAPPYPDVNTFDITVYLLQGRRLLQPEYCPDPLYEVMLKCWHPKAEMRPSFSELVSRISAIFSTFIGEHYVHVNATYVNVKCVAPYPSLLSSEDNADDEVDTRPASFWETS
- condition set: at 1 µM
Give bare numbers, in %.

compound smiles: COc1ccc(Nc2ncc(-c3ccccc3)o2)cc1OC
reported property: inhibition
measured value: 1.69
//
compound smiles: O=C(O[C@H]1CN[C@H](C#Cc2cc3ncnc(Nc4ccc5c(cnn5Cc5ccccc5)c4)c3s2)C1)N1CCOCC1
reported property: inhibition
measured value: 1.77
//
compound smiles: COc1ccccc1-c1cc(/C=C2\C(=O)Nc3ncc(Br)cc32)cc(Br)c1O
reported property: inhibition
measured value: 4.03
//
compound smiles: Cc1nnc(-c2cccc(-c3ccc(C(=O)NCC4CC4)cc3)c2)o1
reported property: inhibition
measured value: 7.87
//
compound smiles: O=C(Nc1n[nH]c2nnc(-c3cccnc3)cc12)C1CC1
reported property: inhibition
measured value: 0.68

For the next question, use this compound.
Query: // lookup inhibition | system=Hepatocyte growth factor receptor (Homo sapiens) (UniProt P08581) | key= COc1c(C(N)=O)cc(-c2ccc(Cl)cc2)cc1-c1ccc(S(N)(=O)=O)cc1;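 further: each value is an averaged inhibition figure for MET, taken as the mean across measurements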
Result: 5.98

* * *

I'd appreciate it if you could supply inhibition values for the items below.
- study target: Tyrosine-protein kinase CSK (Homo sapiens) (UniProt P41240);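 further: each value is an averaged inhibition reading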
- Sequence (P41240 2-450 limits assumed): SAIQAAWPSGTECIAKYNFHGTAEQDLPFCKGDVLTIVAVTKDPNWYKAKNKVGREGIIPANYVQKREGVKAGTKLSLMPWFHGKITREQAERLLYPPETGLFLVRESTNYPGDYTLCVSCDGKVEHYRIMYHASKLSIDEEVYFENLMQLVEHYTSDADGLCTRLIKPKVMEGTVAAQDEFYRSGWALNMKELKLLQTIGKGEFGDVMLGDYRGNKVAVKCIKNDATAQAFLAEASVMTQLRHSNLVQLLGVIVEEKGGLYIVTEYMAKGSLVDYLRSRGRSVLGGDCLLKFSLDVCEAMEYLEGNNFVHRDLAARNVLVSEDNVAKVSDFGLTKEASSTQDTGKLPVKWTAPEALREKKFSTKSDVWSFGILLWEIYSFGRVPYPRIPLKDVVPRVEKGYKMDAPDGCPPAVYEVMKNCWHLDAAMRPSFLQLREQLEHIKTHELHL
- condition set: at 1 µM
One number for each entry, in %.

Please review the following examples before continuing.
compound: COc1c(C(N)=O)cc(-c2ccc(Cl)cc2)cc1-c1ccc(S(N)(=O)=O)cc1
measured value: 4.45

compound: CC1(C)CC(n2cnc(-c3ccc(F)cc3)c2-c2ccnc(N)n2)CC(C)(C)N1
measured value: -2.23

compound: CC1=C(C(=O)Nc2ccc3[nH]nc(C)c3c2)C(c2ccc(C(F)(F)F)cc2)CC(=O)N1 (stereo unspecified)
measured value: 5.65

compound: CCS(=O)(=O)c1ccc(OC)c(Nc2ncc(-c3cccc(F)c3)o2)c1
measured value: 17.9

compound: Cc1ccc(-c2cc3c(NC(=O)C4CC4)ncnc3o2)cc1
measured value: 2.78

Please give inhibition for each item listed below.
1. Cn1c(-c2nonc2N)nc2cnccc21
2. N#Cc1ccc2c(-c3ccnc(NC4CC4)n3)c(-c3ccc(F)cc3)nn2c1
3. O=C(O[C@H]1CN[C@H](C#Cc2cc3ncnc(Nc4ccc5c(cnn5Cc5ccccc5)c4)c3s2)C1)N1CCOCC1

Result:
[-0.66, 3.45, 4.15]
